- Protocol text: Brain tissue distribution study in Sprague-Dawley rat (IV cassette)
- Type: in vivo
- Measurement parameters: male, brain/plasma, IV cassette 0.2 mg/kg per compound, 0.25 h post-dose, distribution partition coefficient
Measured property: Kp at 0.25 h

// sample `Cn1cc(-c2ccc(Cc3cc(C(=O)NC4CCOCC4)nc4c3ccn4C)cn2)cn1` , its Kp at 0.25 h was 0.28

// sample `Cc1nc(-c2ccc(Cc3cc(C(=O)NC4CCOCC4)nc4c3ccn4C)cc2)co1` , its Kp at 0.25 h was 0.51

---

- Tgt: human mAChR M1 (Homo sapiens, UniProt P11229)
- Sequence (P11229 1-460): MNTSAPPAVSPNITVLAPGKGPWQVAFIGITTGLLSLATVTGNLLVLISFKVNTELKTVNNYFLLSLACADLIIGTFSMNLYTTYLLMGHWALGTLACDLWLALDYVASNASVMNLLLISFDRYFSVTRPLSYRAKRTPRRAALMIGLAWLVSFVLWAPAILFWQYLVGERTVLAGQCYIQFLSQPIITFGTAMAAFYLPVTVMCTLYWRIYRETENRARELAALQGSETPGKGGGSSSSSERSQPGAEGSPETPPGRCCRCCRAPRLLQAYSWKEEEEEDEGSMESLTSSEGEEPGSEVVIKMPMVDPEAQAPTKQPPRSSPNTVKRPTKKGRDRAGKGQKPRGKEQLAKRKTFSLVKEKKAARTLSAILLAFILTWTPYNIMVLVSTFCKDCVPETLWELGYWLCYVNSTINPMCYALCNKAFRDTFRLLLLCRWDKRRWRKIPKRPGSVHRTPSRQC
- Protocol text: mAChR M1 cell-based functional assay (calcium mobilization, Fluo-4, FDSS)
- Measurement parameters: CHO-K1 cells stably expressing hM1; positive allosteric modulator activity as increase in the EC20 acetylcholine response
Provide the recorded log10 of EC50 for the entries that follow.
Recall that a logarithmic scale is used here: each number is log10 of EC50 in nM.

// sample `Cn1ccc2c(Cc3ccc(-c4cscn4)cc3)cc(C(=O)N[C@H]3CC[C@@H]3O)nc21` , its log10 of EC50 was 2.56

// sample `Cn1cc(-c2ccc(Cc3cc(C(=O)NC4CC5(COC5)C4)nc4c3ccn4C)cn2)cn1` , its log10 of EC50 was 2.15

// sample `Cn1ccc2c(Cc3ccc(-n4cccn4)cc3)cc(C(=O)N[C@H]3CCCC[C@@H]3O)nc21` , its log10 of EC50 was 1.48

// sample CC1CC(NC(=O)c2cc(Cc3ccc(-c4cscn4)cc3)c3ccn(C)c3n2)CC(C)O1 (centres unmarked) , its log10 of EC50 was 3.05

// sample `Cc1nc(-c2ccc(Cc3cc(C(=O)N[C@H]4CCCC[C@@H]4O)nc4c3ccn4C)cc2)co1` , its log10 of EC50 was 2.00

// sample `Cn1ccc2c(Cc3ccc(-c4cscn4)cc3)cc(C(=O)NC3CN(C4COC4)C3)nc21` , its log10 of EC50 was 3.49

// sample `Cn1ncc2c(Cc3ccc(-c4cscn4)cc3)cc(C(=O)NCC3CCOCC3)nc21` , its log10 of EC50 was 3.21

// sample Cn1cc(-c2ccc(Cc3cc(C(=O)NC4CCOC(C)(C)C4)nc4sccc34)cn2)cn1 (centres unmarked) , its log10 of EC50 was 1.70
